Target: human GR (Homo sapiens)
Construct: SW1353 naturally expresses human GR; endogenous in cells
Sequence (P04150 whole entry): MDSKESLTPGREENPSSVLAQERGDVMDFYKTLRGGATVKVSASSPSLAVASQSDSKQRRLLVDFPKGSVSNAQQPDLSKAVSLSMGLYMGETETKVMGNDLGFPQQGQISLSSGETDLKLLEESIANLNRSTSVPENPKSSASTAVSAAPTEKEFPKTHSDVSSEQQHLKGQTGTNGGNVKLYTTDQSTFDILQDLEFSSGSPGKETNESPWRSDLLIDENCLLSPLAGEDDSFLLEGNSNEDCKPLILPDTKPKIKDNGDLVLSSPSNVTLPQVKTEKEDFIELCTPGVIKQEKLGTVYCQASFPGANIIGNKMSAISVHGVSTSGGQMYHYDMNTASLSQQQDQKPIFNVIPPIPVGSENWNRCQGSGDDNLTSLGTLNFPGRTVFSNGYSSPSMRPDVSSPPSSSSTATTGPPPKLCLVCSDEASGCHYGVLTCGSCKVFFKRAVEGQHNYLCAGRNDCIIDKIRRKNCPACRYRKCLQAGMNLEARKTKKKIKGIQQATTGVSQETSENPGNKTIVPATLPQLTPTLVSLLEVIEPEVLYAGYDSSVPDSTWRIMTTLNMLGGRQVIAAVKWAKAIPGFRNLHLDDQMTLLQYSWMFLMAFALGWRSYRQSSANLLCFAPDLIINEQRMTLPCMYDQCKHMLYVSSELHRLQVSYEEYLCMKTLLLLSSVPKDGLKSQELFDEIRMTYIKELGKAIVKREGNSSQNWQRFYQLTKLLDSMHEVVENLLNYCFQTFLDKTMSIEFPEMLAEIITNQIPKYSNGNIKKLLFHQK
Assay: GR agonist potency, MMTV-luciferase reporter in SW1353 cells
Settings: human chondrosarcoma cell-line SW1353 stably transfected with MMTV-luciferase reporter; approx. 18 hours; data as percentage of 1 μM dexamethasone positive control
Labelling: EC50 reported below 30 nM becomes y; at or above becomes n.

-- ask Is EC50 of C[C@]12C=CC(=O)C=C1CC[C@H]1[C@@H]3CC[C@](OC(=O)c4ccc(Sc5ccc(O)c(Cl)c5)cc4)(C(=O)OCC#N)[C@@]3(C)C[C@H](O)[C@@]12F [Example 20] strictly below 30 nM?
-- reply n

-- ask Would you mind doing C[C@]12C=CC(=O)C=C1[C@@H](F)C[C@H]1[C@@H]3CC[C@](OC(=O)c4ccc(Oc5ccccc5)cc4)(C(=O)OCC#N)[C@@]3(C)C[C@H](O)[C@@]12F [Example 4] as well?
-- reply y
